format: in vivo, healthy subjects; conditions: human, plasma, oral, 10 mg
Readout Name: half-life (h)

- N#C[C@@H]1C[C@@H]2C[C@@H]2N1C(=O)[C@@H](N)C12CC3CC(CC(O)(C3)C1)C2 [Saxagliptin, saxagliptin, reference compound]: 2.38

* * *

type: in vivo, healthy subjects; conditions: human, plasma, oral, 360 mg
Readout Name: Tmax (h)

• COc1ccc([C@@H]2Sc3ccccc3N(CCN(C)C)C(=O)[C@@H]2OC(C)=O)cc1 [Diltiazem, diltiazem, reference compound] = 13

* * *

assay: Simvastatin study: two-way pharmacokinetic interaction, plasma pharmacokinetics; conditions: human, in vivo, 40 mg
Readout Name: AUC (ng·h/mL)

* CCC(C)(C)C(=O)O[C@H]1C[C@@H](C)C=C2C=C[C@H](C)[C@H](CC[C@@H](O)C[C@@H](O)CC(=O)O)[C@H]21 | 17.9

* * *

test: Ketoconazole study: two-way pharmacokinetic interaction, plasma pharmacokinetics; format: in vivo, healthy subjects; settings: human, plasma, 100 mg
Readout Name: AUC(0-inf) (ng·h/mL)

- N#C[C@@H]1C[C@@H]2C[C@@H]2N1C(=O)[C@@H](N)C12CC3CC(CC(O)(C3)C1)C2 [Saxagliptin, saxagliptin, reference compound]: 1970

* * *

type: in vivo, healthy subjects; details: human, plasma, oral, 10 mg
Readout Name: Cmax (ng/mL)

- N#C[C@@H]1C[C@@H]2C[C@@H]2N1C(=O)[C@@H](N)C12CC3CC(CC(O)(C3)C1)C2 [Saxagliptin, saxagliptin, reference compound]: 53

* * *

assay: Simvastatin study: two-way pharmacokinetic interaction, plasma pharmacokinetics; details: human, in vivo, 10 mg
Readout Name: AUC (ng·h/mL)

- N#C[C@@H]1C[C@@H]2C[C@@H]2N1C(=O)[C@@H](N)C12CC3CC(CC(O)(C3)C1)C2 [Saxagliptin, saxagliptin, reference compound]: 153

* * *

assay type: in vivo, healthy subjects; details: human, plasma, oral, 360 mg
Readout Name: Cmax

* COc1ccc([C@@H]2Sc3ccccc3N(CCN(C)C)C(=O)[C@@H]2OC(C)=O)cc1 [Diltiazem, diltiazem, reference compound] | 262 ng/mL

* * *

test: Ketoconazole study: two-way pharmacokinetic interaction, plasma pharmacokinetics; assay type: in vivo, healthy subjects; conditions: human, plasma, 200 mg
Readout Name: Cmax

- CC(=O)N1CCN(c2ccc(OCC3COC(Cn4ccnc4)(c4ccc(Cl)cc4Cl)O3)cc2)CC1 (stereo not shown) [Ketoconazole, ketoconazole]: 7040 ng/mL

* * *

type: in vivo, healthy subjects; conditions: human, plasma, oral, 360 mg
Readout Name: AUC (ng·h/mL)

- COc1ccc([C@@H]2Sc3ccccc3N(CCN(C)C)C(=O)[C@@H]2OC(C)=O)cc1 [Diltiazem, diltiazem, reference compound]: 3870

* * *

experiment: Ketoconazole study: two-way pharmacokinetic interaction, plasma pharmacokinetics; assay type: in vivo, healthy subjects; conditions: human, plasma, 200 mg
Readout Name: Tmax

• CC(=O)N1CCN(c2ccc(OCC3COC(Cn4ccnc4)(c4ccc(Cl)cc4Cl)O3)cc2)CC1 (stereo not shown) [Ketoconazole, ketoconazole] = 2 h

* * *

type: in vivo, healthy subjects; settings: human, plasma, oral, 10 mg
Readout Name: Tmax

• N#C[C@@H]1C[C@@H]2C[C@@H]2N1C(=O)[C@@H](N)C12CC3CC(CC(O)(C3)C1)C2 [Saxagliptin, saxagliptin, reference compound] = 30 min

* * *

test: Simvastatin study: two-way pharmacokinetic interaction, plasma pharmacokinetics; settings: human, in vivo, 10 mg
Readout Name: Tmax (h)

* N#C[C@@H]1C[C@@H]2C[C@@H]2N1C(=O)[C@@H](N)C12CC3CC(CC(O)(C3)C1)C2 [Saxagliptin, saxagliptin, reference compound] | 1
